Test system: MALME-3M melanoma
Assay: NCI-60 one-dose screen, 48 h
Details: 10 µM unless noted
About 83,000 compounds went through this panel and 20% of them were active in at least one assay; those are over-represented in the sample as a whole. The source made the active and inactive calls. The calls were made as follows: active = growth percent below 10; inactive = the rest.
Please state which outcome applies, choosing from active, inactive

Q: I would be grateful if you could indicate the recorded call for `NS(=O)(=O)c1cc2c(cc1Cl)NC=NS2(=O)=O` .
Result: inactive

Q: Please state the recorded outcome for this compound: COc1cc(/C=C2\CN(C)CC3=C2Nc2nc(SC)[nH]c(=O)c2C3c2cc(OC)c(OC)c(OC)c2)cc(OC)c1OC (stereo not drawn)
Result: inactive

Q: Field: outcome | Entry: `CCCc1n(Cc2ccc3ccccc3c2)cc[n+]1Cc1ccc2ccccc2c1`
Result: active

Q: Record lookup: outcome of this test for `O=C(/C=C/c1cccc(Nc2ccnc3cc(Cl)ccc23)c1)c1ccc(Cl)cc1` ?
Result: inactive

Q: Could you please tell me the result logged for COC(=O)Nc1ccc2ccc3c(NC(=O)OC)ccc4ccc1c2c43 (tested in a mixture with another compound) in this assay?
Result: inactive

Q: Returns: the outcome recorded for `COC(=O)[C@H](Cc1cn(C)cn1)NC(=O)[C@@H](NC(=O)Nc1cc(C(F)(F)F)cc(C(F)(F)F)c1)C(C)C` in this assay.
Result: active

Q: Which outcome was assigned to `N#Cc1ccccc1C#Cc1ccccc1C#Cc1ccc(OCCCCCCOc2ccc(C#Cc3ccccc3C#Cc3ccccc3C#N)cc2)cc1` in this test?
Result: inactive

Q: How did this test come out for `COc1cc(NC(=O)NCc2ccco2)ccc1-c1ccc(NC(=O)NCc2ccco2)cc1OC` ?
Result: inactive

These measurements were taken from PubChem BioAssay (NCI).
